Test: soluble on expression in E. coli; label from the status in PepcDB or PDB records

{"columns": ["SEQ", "soluble on expression in E. coli"],
 "data": [
  ["MAMSIELRTKYGQIDISNEVIAMVAGGAAVDCYGIVGSKNQIKDGLTEILRKENFSRGVQVRQEGEQIHIDMYIIVSYGTKISEVAHNVQTKVKYTVNQTIGLAVDSVNIYVQGVRVTNPLEHHHHHH", "not soluble"],
  ["MGSDKIHHHHHHMETQNKPTVTDIDRPILVPPGGHKKVLLHSCCAPCSGEVMEAMLASGIDYTIYFYNPNIHPHKEYMLRKEENVRFAEKFGIPFIDKDDDYENDRKEWFAKAKGMEFEPERGIRCTMCFDMRFEKAAQYAHEHGFPVFTSSLGISRWKNMNQINDCGRRAAAPYDDVVYWDFNWRKGGGSARMIEISKRENFYQQEYCGCAYSLRDSNAHRKSQGRIPIKLGVLYYGDESTQYEPAPIRVDK", "not soluble"],
  ["MLDPARSYDLIGDVHGCALTLEHLLDRLGYHKQAGVWRHPSRMAVFLGDIIDRGPRIRESLHIVHDMVEAGQALCIMGNHEFNALGWSTPAAEGSGKQFVREHTPRHARLIHETLTQFEQHPGDWHDFLQWFYELPLFVDAGRFRVVHACWDAGLIAPLRQQYPNGCIDREFLQSAAVPDSFACTAFDRLLRGTDMRLPHGLTMTSGDGLTRAFFRTKFWEDDPQTYGDIVFQPDALPEPVARTPLSPAEKNSLLRYGAEEPMLFVGHYWRSGKPAPIRPNLACLDYSAVLYGKLAAYRLDQETRLDPNKFVWVDVERPEVVRLEHHHHHH", "not soluble"],
  ["MAHHHHHHMTGLIAPHAGMSYSGRTAAEAFAVFREYLYAKGSKGSELERIFILGPSHTRGFEGCELSAASAYETPFGPLRVDTAVVDRVITDLRKAGVGAATASRRTDEAEHSIEMETPYLSHILHYPPTTTGAPVQPAAGRVAIVPIIVGWTNRQDEKAICDVLKPYMDDARNFFICSSDFCHWGERFSYTYHYKRSEYPNIGDSIIAMDHAAMELLEKRDLERWYAYLQMTKNTICGRAPISIGMQRWASKGNKARVKFVHYSQSNKCKDADDSSVSYAAAIIME", "soluble"],
  ["MGSDKIHHHHHHMIKGIGTNVDTRRVNGSIKRLVSELEFFKSIGFDYVEIPAAGLDVIARGRIIRKRLERVKELLSNYNFRYTVHAPDVINLKIKTNPWHYRVMEATIEFAGEINAEVVVYHYGEVDHSIDVPERVQRKAEIVALRELADLAKEKGVVIGVENVGHPVSEVLKLVRAVNHPNVKLVIDVGHLFIVSNYTGIDFYDELKKGLPYAVELHLSDNFGESPQTYQKIPDVEAFRFVYGIGDLHLPIGEGDIPYNKVFRIIRESGFDGIVILEINSMDRFADEYADSLNLLRKRLILAADNNKTKKRRKVK", "not soluble"],
  ["MNEREAKMYELEFPAPDVASDGVDGPTLIIAMQGYADAGLAVEASADHLLSALEHRPVAVFNNDELIDYRSRRPAVTIDHNIVVDANELKLSMDVLRDSNGTPFLLLSGPEPDLRWDAFSQAVADLVRRFGVRRTICIYAAPMTVPHTRPLIVSAHGNSLDLIKHHFSIDSKVTIPGSASLHIERLLNKNNIDVAGYTAHVPHYLSASAYPLATLKLLEAITTSTNLDFPLKTLEADAQKTALQVEEQVAGSQEIESVVKILEQQYDEELEKYRERNPKALEIAEDDLPDADELGEEFERFLANIDEENGSDD", "not soluble"],
  ["MSDDHHDDEHFHTGDSGAAATFPKQCSALRKNEHVMIKGRPCKIVEMSTSKTGKHGHAKVHMVAIDIFTSKKLEDICPSTHNMDVPVVKRREYLLMAIDDGYCSLMDPESCEQKDDLKLPDTELGQQIRDAYEKDEGSVLVQVVSAIGEEAILGWKVSTKE", "not soluble"],
  ["MTGFAPQAGLPSHSVQVADHFDGNSPRGSPMSSGGHPVDRNRGLQPQKEAFSGPAAGKPFHPQALSKYSRHYSPEDELSAEAQPIAAYKIVSQSNKQLLAGSVSVTSLSSRTTELATADPFALAPFPSKAGKQKP", "soluble"],
  ["MAHHHHHHMESGKNAHRLNRIFRKPKTMVAPRAWRPAADGEGERQQPFSGVSLQRINAMISELSEEERTRALAQQDPPTVVQEELAKRAARFGLTIERADAGNNEKTASSEITPEVQAVFQRRMERFGQSAAEEAMQKRVARFGNAATSAEGPGVELKLSEADREAMQRRQSRFGG", "soluble"],
  ["MGLAASEALQGSEQEINSAFSNQITPVISGDYIVWQDERDGNWDIYMYDMSAGRTETSLFNGPKDEIEPAISGSRVVLADNRRGNYDIYMYDISTKKEVQVTSDKSEQKEPAISEDIIVWTDRRNQNTDIYMYDLTTKEETRITDDKADQSQPAVWGNIIVWKDTRNGNEDIYMYDISAGKESPVVMDSAAQTNPVIEGDYIVWEDRRAGNLDIYMYEISTGKEKPVCTDPSPQKTPAISDGRIVWADGRIKGTNIFIYDIATGQEKTVSTASEYESNPSIDGNRIVWQDKRKGAMDIFMFTEDASETESTAGEKTEAETGSKAPLGIYPVSAGVIAAYLMINSGKKGKRKTLEHHHHHH", "not soluble"],
  ["GMTNHNNSGKKKVAILIEQAVEDTEFIIPCNGLKQAGFEVVVLGSRMNEKYKGKRGRLSTQADGTTTEAIASEFDAVVIPGGMAPDKMRRNPNTVRFVQEAMEQGKLVAAVCHGPQVLIEGDLLRGKQATGFIAISKDMMNAGADYLDEALVVDGNLITSREPGDLAIFTTAILSRLGYGGKDAALPDEKDRNAEWWKLADAWGGSTKGDIVRGLNTALGGERYSLEALEKYTEKESDVEAKALFQEMITNKQRHIEYLETYLTRLGEKPSLSANIANQYAKVKTALTGSDDIYQIRSALGDIQTGIGDIGNLCAMYTDPIATAIFKEIYKDLVKYEQRLVSLYRTRTNATVQPPKPTTGAAVSM", "soluble"]
]}

Just for reference, the DeepSol protein solubility set is where these values come from.
